Assay: solubility test in water (ammonia alkali) by filter paper spot
Type: physicochemical
Experimental: (Desalination process) After 83.0 parts of the compound of Formula (28) obtained in the fifth process was dissolved in 800 parts of water, 900 parts of methanol was added, and the deposited coloring matter was filtered and then dried to obtain 66.4 parts of desalted black coloring matter of Formula (28) (a compound No. 1 in Table 1: Na salt). […]
resultType: solubility

[[record]]
smilesrepresentation = "COc1ccc(N=Nc2c(S(=O)(=O)O)cc3c(S(=O)(=O)O)c(N=Nc4cc(S(=O)(=O)O)c5cc(S(=O)(=O)O)c(N=Nc6ccc7c(O)c(N=Nc8ccccc8S(=O)(=O)O)c(S(=O)(=O)O)cc7c6)c(O)c5c4N)ccc3c2O)c(S(=O)(=O)O)c1"
resulttype = "solubility"
recordedresult = "≥ 100 mg/mL"

[[record]]
smilesrepresentation = "COc1ccc(N=Nc2c(S(=O)(=O)O)cc3c(S(=O)(=O)O)c(N=Nc4cc(S(=O)(=O)O)c5cc(S(=O)(=O)O)c(N=Nc6ccc7c(O)c(N=Nc8ccc(OC)cc8S(=O)(=O)O)c(S(=O)(=O)O)cc7c6S(=O)(=O)O)c(O)c5c4N)ccc3c2O)c(S(=O)(=O)O)c1"
resulttype = "solubility"
recordedresult = "≥ 100 mg/mL"

[[record]]
smilesrepresentation = "Nc1c(N=Nc2cc3c(O)c(N=Nc4ccc([N+](=O)[O-])cc4S(=O)(=O)O)c(S(=O)(=O)O)cc3cc2S(=O)(=O)O)cc(S(=O)(=O)O)c2cc(S(=O)(=O)O)c(N=Nc3ccc4c(O)c(N=Nc5ccc([N+](=O)[O-])cc5S(=O)(=O)O)c(S(=O)(=O)O)cc4c3S(=O)(=O)O)c(O)c12"
resulttype = "solubility"
recordedresult = "≥ 100 mg/mL"

[[record]]
smilesrepresentation = "Nc1c(N=Nc2ccc3c(O)c(N=Nc4cc(C(=O)O)cc(C(=O)O)c4)c(S(=O)(=O)O)cc3c2S(=O)(=O)O)cc(S(=O)(=O)O)c2cc(S(=O)(=O)O)c(N=Nc3ccc4c(O)c(N=Nc5cc(C(=O)O)cc(C(=O)O)c5)c(S(=O)(=O)O)cc4c3S(=O)(=O)O)c(O)c12"
resulttype = "solubility"
recordedresult = "≥ 100 mg/mL"

